Read-out: Matrix Metallopeptidase 1 (MMP1), MMP1 (gene 4312)
Assay: BSK_BE3C_MMP1: BioMAP Diversity Plus: BE3C Assay for Matrix Metallopeptidase 1 (MMP1) Biomarker Activity (AID 2283024)
Settings: primary human bronchial epithelial cells; actives raise or lower the signal
Activity calls are given as the source filed them. How the source made its calls: active means hit-call score of the fitted dose curve at least 0.9, where 1 is the maximum; inactive means score below 0.9.
Parameter call: string, one of true (1) (active), false (0) (inactive)

Request: Could you check what this test reported for Nc1ccc(Cl)cc1 ?
Result: false (0)

Request: Could you check what this test reported for CCCCc1ccccc1 ?
Result: false (0)

Request: Could you check what this test reported for CCCCC(CC)COP(=O)(Oc1ccccc1)Oc1ccccc1 (stereo not given) ?
Result: true (1)

Request: Could you check what this test reported for Cc1ccc(O)cc1C ?
Result: false (0)

Request: Could you check what this test reported for CC(C)(C)c1ccccc1OP(=O)(Oc1ccccc1)Oc1ccccc1 ?
Result: true (1)

Request: Could you check what this test reported for Cc1ccc2c(c1N)C(=O)c1ccccc1C2=O ?
Result: false (0)

Request: Could you check what this test reported for CC(C)(C)c1ccc(O)cc1 ?
Result: false (0)

Request: Could you check what this test reported for O=C(O)C(Cl)Cl ?
Result: false (0)

Request: Could you check what this test reported for CCOS(=O)(=O)OCC ?
Result: false (0)

Request: Could you check what this test reported for c1ccc(OP(Oc2ccccc2)Oc2ccccc2)cc1 ?
Result: false (0)

###

Read-out: CD69, CD69 (gene 969)
Test: BSK_SAg_CD69: BioMAP Diversity Plus: SAg Assay for CD69 Biomarker Activity (AID 2283089)
Conditions: primary human HUVEC with PBMC; actives raise or lower the signal
Activity calls are given as the source filed them. The calls were made as follows: active = hit-call score of the fitted dose curve at least 0.9, where 1 is the maximum; inactive = score below 0.9.
Parameter call: string, one of Yes (active), No (inactive)

Request: Could you check what this test reported for COCCOCCO ?
Result: No

Request: Could you check what this test reported for Nc1ccc2ccccc2c1 ?
Result: No

Request: Could you check what this test reported for OCC(F)(F)OC(F)(F)C(F)(F)OC(F)(F)CO ?
Result: No

Request: Could you check what this test reported for CCN(CC)c1ccccc1 ?
Result: No

Request: Could you check what this test reported for FC(F)(F)C(F)(C(F)(F)F)C(F)(F)C(F)(F)CC1CO1 (centres undefined) ?
Result: No

Request: Could you check what this test reported for O=C(O)C=CC(F)(C(F)(F)F)C(F)(F)F ?
Result: No

Request: Could you check what this test reported for C=CC(=O)OCC(CC)(COC(=O)C=C)COC(=O)C=C ?
Result: Yes

Request: Could you check what this test reported for ClC1=C(Cl)C2(Cl)C3C(Cl)C(Cl)CC3C1(Cl)C2(Cl)Cl (centres undefined) ?
Result: Yes

Request: Could you check what this test reported for CCCCc1ccccc1 ?
Result: No

Request: Could you check what this test reported for c1nc[nH]n1 ?
Result: No

Request: Could you check what this test reported for CC(C)(C)c1ccc(O)cc1 ?
Result: No

Request: Could you check what this test reported for Nc1cc2c3c(c1)C(c1ccccc1)=N[C@@H](NC(=O)c1cccnc1)C(=O)N3CC2 ?
Result: Yes

Request: Could you check what this test reported for Cc1ccc(N)cc1N ?
Result: No

Request: Could you check what this test reported for O=P1(N(CCCl)CCCl)NCCCO1 (centres undefined) ?
Result: No

###

Test: APR_HepG2_CellCycleArrest_72hr: Apredica 72-hour HepG2 Assay for Cell Cycle Arrest (AID 2282914)
Settings: high-content imaging, actives raise or lower the signal
Calls of active or inactive are those of the source. How the source made its calls: active means hit-call score of the fitted dose curve at least 0.9, where 1 is the maximum; inactive means score below 0.9.
Parameter call: string, one of active, inactive

Request: Could you check what this test reported for CCCN(CCC)c1c([N+](=O)[O-])cc(C(C)C)cc1[N+](=O)[O-] ?
Result: active

Request: Could you check what this test reported for CSC(C)(C)C=NO ?
Result: inactive

Request: Could you check what this test reported for Cc1ccc(N)cc1N ?
Result: inactive

Request: Could you check what this test reported for CC(Cc1ccc(OCC(=O)O)cc1)NCC(O)c1csc(C(F)(F)F)n1 (stereo not drawn) ?
Result: inactive

Request: Could you check what this test reported for CCCCc1ccccc1 ?
Result: inactive

Request: Could you check what this test reported for Nc1ccc(Cl)cc1 ?
Result: inactive

Request: Could you check what this test reported for Cc1cccc(N)c1 ?
Result: inactive

Request: Could you check what this test reported for CCCCCCCc1ccc(O)cc1 ?
Result: inactive
